# Test system: Bacillus subtilis DB104 (SP-AmyQ fusion secretion)
# PROCEDURE_SUMMARY: AmyQ secretion efficiency, weighted average sort bin (1 = best secretion, 10 = worst) (bin number (weighted average, 1-10)); higher = lower secretion efficiency
VALUE_KIND: AmyQ secretion efficiency
Kindly provide the number alone.

Below: 6 sequences and their reported AmyQ secretion efficiency.
INSERT INTO measurements (monomer_sequence, assayed_target, value_kind, reported_value) VALUES
  ('MKTKTLFIFSAILTLSIQAPNETFAQTA', 'Bacillus subtilis DB104 (SP-AmyQ fusion secretion)', 'AmyQ secretion efficiency', 2.35),
  ('MKSKWMSGLLLVAVGFSFTQVMVHNGET', 'Bacillus subtilis DB104 (SP-AmyQ fusion secretion)', 'AmyQ secretion efficiency', 8.98),
  ('MKVPKTMLLSTAAGLLLSLDEDSVSAHYV', 'Bacillus subtilis DB104 (SP-AmyQ fusion secretion)', 'AmyQ secretion efficiency', 6.39),
  ('MRQRKKAVFVIMISFLIATVNVNTAHAAID', 'Bacillus subtilis DB104 (SP-AmyQ fusion secretion)', 'AmyQ secretion efficiency', 6.22),
  ('MKKLVLCVSILAVILSGVWLTQLS', 'Bacillus subtilis DB104 (SP-AmyQ fusion secretion)', 'AmyQ secretion efficiency', 5.87),
  ('MKSKGSIMACLILFSFTITTFINTETKSAFSN', 'Bacillus subtilis DB104 (SP-AmyQ fusion secretion)', 'AmyQ secretion efficiency', 6.7);

Lab note: next sequence to report on.
Supply measured AmyQ secretion efficiency of `MKIVLLSALLLLLFAFEPSASGKKL` in your reply. 4.93
